Values from patent US12612409B2

# TARGET: recombinant F508del V470 CFTR in Fischer rat thyroid (FRT) cells (Homo sapiens, UniProt P13569, DEL508-508)
# Sequence (P13569 with tags, fused parts or gaps DEL508-508): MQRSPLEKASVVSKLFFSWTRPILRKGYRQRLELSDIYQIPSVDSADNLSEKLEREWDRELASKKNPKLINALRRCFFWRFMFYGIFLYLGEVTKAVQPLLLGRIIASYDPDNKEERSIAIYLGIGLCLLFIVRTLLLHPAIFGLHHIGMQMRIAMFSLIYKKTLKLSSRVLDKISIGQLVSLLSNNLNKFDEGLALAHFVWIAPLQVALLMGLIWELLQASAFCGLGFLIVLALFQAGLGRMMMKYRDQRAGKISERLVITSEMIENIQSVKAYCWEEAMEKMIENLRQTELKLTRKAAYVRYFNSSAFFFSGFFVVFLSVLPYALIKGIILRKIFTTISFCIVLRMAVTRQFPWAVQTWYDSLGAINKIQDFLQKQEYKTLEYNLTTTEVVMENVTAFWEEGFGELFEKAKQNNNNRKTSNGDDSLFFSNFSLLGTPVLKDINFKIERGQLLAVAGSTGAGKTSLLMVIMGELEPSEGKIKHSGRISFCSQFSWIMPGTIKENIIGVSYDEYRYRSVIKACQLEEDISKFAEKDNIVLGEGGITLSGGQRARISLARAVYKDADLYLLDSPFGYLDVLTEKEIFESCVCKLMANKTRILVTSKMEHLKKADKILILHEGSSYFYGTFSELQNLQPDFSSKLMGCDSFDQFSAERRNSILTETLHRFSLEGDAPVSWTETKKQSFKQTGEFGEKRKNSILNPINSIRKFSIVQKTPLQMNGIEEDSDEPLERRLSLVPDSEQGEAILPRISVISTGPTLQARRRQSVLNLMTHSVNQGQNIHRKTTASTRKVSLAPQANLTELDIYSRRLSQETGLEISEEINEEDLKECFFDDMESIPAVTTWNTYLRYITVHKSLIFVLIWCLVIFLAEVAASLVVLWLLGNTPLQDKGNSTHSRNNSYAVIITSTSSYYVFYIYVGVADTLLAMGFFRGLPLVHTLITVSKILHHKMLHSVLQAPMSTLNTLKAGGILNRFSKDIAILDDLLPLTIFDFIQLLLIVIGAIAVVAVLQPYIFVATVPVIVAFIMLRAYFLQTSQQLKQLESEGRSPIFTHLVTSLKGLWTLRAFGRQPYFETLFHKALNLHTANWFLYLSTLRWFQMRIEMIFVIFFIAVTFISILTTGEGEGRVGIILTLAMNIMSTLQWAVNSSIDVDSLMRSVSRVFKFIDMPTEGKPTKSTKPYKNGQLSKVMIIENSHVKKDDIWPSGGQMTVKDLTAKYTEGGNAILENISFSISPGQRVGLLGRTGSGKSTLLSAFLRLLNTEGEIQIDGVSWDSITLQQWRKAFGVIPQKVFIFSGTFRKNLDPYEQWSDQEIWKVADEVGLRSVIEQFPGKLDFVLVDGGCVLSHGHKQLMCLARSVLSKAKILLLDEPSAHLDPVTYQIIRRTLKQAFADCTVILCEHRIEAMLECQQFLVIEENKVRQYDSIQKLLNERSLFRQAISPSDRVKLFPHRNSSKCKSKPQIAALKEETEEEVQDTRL
# TEST DESCRIPTION: FRT ion flux assay of F508del CFTR potentiation
# REPORTED CONDITIONS: FRT cells expressing F508del V470 CFTR, forskolin 20 uM, 27° C. pre-incubation
# Description: FRT Ion Flux Assay of F508del CFTR Potentiation Fischer rat thyroid (FRT) cell lines stably expressing recombinant F508del V470 CFTR and halide-sensitive yellow fluorescent protein (Pedemonte et al., J. Clin. Invest. 115(9) 2564-71 (2005)) were seeded at 25,000 cells/well in 50 uL/well of culture medium into black-walled, clear bottom tissue-culture-treated 384-well plates (Corning, cat. no. 3712). […] Plates were loaded into FLIPR384 fluorescence imaging plate reader (Molecular Devices). […]
Consider the following compounds and their measured pEC50 readings.
# pEC50 = -log10(concentration in molar units)

What measured pEC50 goes with COc1cc(C#N)ccc1-c1cn(Cc2cn(-c3ccccc3F)nn2)c2ncnc(N)c12 [Example 79] ?
7.12

Can you handle Nc1ncnc2c1c(C1CC1)cn2Cc1cnn(-c2ccccc2F)c1 [Example 317] next?
6.89

Can you handle CCOc1ccc(-c2cn(Cc3cn(-c4ccccc4F)nn3)c3ncnc(N)c23)cc1F [Example 75] next?
7.00

Can you handle CCC(c1cn(-c2ccccc2F)nn1)n1cc(-c2cc[nH]n2)c2c(N)ncnc21 (single isomer, unassigned; enantiomer 2) [Example 148] next?
7.91

Can you handle N#Cc1ccc(-c2cn(Cc3cnc(-c4ccccc4F)[nH]3)c3ncnc(N)c23)cc1F [Example 192] next?
7.08

Can you handle N#Cc1c(-c2ccc(Cl)cc2)c2c(N)ncnc2n1Cc1cn(-c2ccccc2F)nn1 [Example 26] next?
6.89

New cases:
What measured pEC50 goes with Cc1ccc(-c2cn(C(C)c3cnc(-c4ccccc4F)[nH]3)c3ncnc(N)c23)cc1F (stereo not shown) [Example 68] ?
6.95
